Value source: paper PMC4920673

assay: Metabolic stability in liver microsomes
Assay type: in vitro ADME, human
measurement_context: 5 μM, human liver microsomes 1 mg/mL, NADPH
Method: Metabolic stability studies were performed with human liver microsomes (HMMC-PL, Lot# PL050B-B, Thermo Fisher Scientific USA) with test compound (5 μM) degradation monitored by LC/MS/MS analysis. Stock solutions (2.5 mM) of the test compounds were prepared in DMSO. […] The percentage of compound metabolised at different times was calculated as a percentage of the levels at the start of incubation (t = 0 min sample). […]
outcome_measure: Microsome stability (% remaining at 2 h) (% remaining)
A number alone suffices; assume % remaining.

molecule	outcome_measure	data_value
Cn1c([N+](=O)[O-])cnc1C(=O)N1CCOCC1 [Compound 8h]	Microsome stability (% remaining at 2 h)	97
O=C(c1ncc([N+](=O)[O-])[nH]1)N1CCOCC1 [Compound 12h]	Microsome stability (% remaining at 2 h)	100

[ask] Let me know recorded Microsome stability (% remaining at 2 h) for O=C(NCc1ccc(F)cc1)c1ncc([N+](=O)[O-])[nH]1 [Compound 12a] , thanks.
[reply] 94

[ask] Let me know recorded Microsome stability (% remaining at 2 h) for Cn1c([N+](=O)[O-])cnc1C(=O)NCc1ccc(F)cc1 [Compound 8a] , thanks.
[reply] 88

* * *

assay: Plasma protein binding by ultrafiltration
Format: in vitro ADME
measurement_context: human, pooled human plasma (100%), 5 μM, 100% human plasma, 37 °C, 30 min, ultrafiltration; read-out: Plasma protein binding (% bound) (converted)
Recorded fraction unbound at 0.5 h, 5 µM values for a group of molecules are listed next.
# print the numeric value only

Worked set:
molecule	fraction unbound at 0.5 h, 5 µM
Cn1c([N+](=O)[O-])cnc1C(=O)NC1CCCCC1	0.06
Cn1c([N+](=O)[O-])cnc1C(=O)NCc1ccc(F)cc1	0.05
O=C(c1ncc([N+](=O)[O-])[nH]1)N1CCOCC1 [Compound 12h]	0.22
Cn1c([N+](=O)[O-])cnc1C(=O)N1CCOCC1	0.91

Query molecule follows.
[ask] Let me know recorded fraction unbound at 0.5 h, 5 µM for O=C(NC1CCCCC1)c1ncc([N+](=O)[O-])[nH]1 [Compound 12k] , thanks.
[reply] 0.01

* * *

Tested on: G. lamblia WB (MtzS)
assay: ATP-bioluminescence growth/survival EC50 assay, G. lamblia WB
measurement_context: average cytotoxicity against HEK293 and HepG2 / G. lamblia WB activity
outcome_measure: S.I (CC50/EC50)

Worked set:
compound	assay_system	S.I (CC50/EC50)
CN(C)C(=O)c1ncc([N+](=O)[O-])n1C [Compound 8g]	G. lamblia WB (MtzS)	>42
Cn1c([N+](=O)[O-])cnc1C(=O)NCc1ccc(OC(F)(F)F)cc1 [Compound 8b]	G. lamblia WB (MtzS)	>33
NC(=O)c1nc([N+](=O)[O-])cn1Cc1cccc(OC(F)(F)F)c1 [Compound 13c]	G. lamblia WB (MtzS)	>12
O=C(NCc1ccccn1)c1ncc([N+](=O)[O-])[nH]1 [Compound 12f]	G. lamblia WB (MtzS)	>14

Query compound follows.
[ask] Let me know recorded S.I (CC50/EC50) for NC(=O)c1nc([N+](=O)[O-])cn1Cc1ccc(OC(F)(F)F)cc1 [Compound 13b] , thanks.
[reply] >22

* * *

Recorded pEC50 values for a group of compounds are listed next.
Test system: E. histolytica HM1:IMSS
assay: ATP-bioluminescence growth/survival EC50 assay, E. histolytica
Assay type: cell-based, Entamoeba histolytica
measurement_context: Entamoeba histolytica, read-out: EC50 E. histolytica HM1:IMSS
Worth noting: pEC50 values are minus log10 of concentrations stated in mol/L.

[ask] Let me know recorded pEC50 for O=C(NC1CC1)c1ncc([N+](=O)[O-])[nH]1 [Compound 12j] , thanks.
[reply] 5.28

[ask] Let me know recorded pEC50 for Cn1c([N+](=O)[O-])cnc1C(=O)N1CCOCC1 , thanks.
[reply] 4.85

[ask] Let me know recorded pEC50 for Cc1ccc(CCNC(=O)c2ncc([N+](=O)[O-])n2C)cc1 , thanks.
[reply] 4.89

* * *

assay: Resazurin cytotoxicity assay, HEK293
Assay type: cell-based, Human
measurement_context: human; 24 h, highest concentration 100 μM; n = 3; read-out: CC50 HEK 293
Recorded CC50 at 24 h values for a group of molecules are listed next.

Worked set:
molecule	CC50 at 24 h
CNC(=O)c1nc([N+](=O)[O-])cn1Cc1ccc(OC(F)(F)F)cc1 [Compound 14a]	> 100 µM
NC(=O)c1nc([N+](=O)[O-])cn1Cc1ccc(F)cc1 [Compound 13a]	> 100 µM

Query molecule follows.
[ask] Let me know recorded CC50 at 24 h for O=C(NCc1ccc(F)cc1)c1ncc([N+](=O)[O-])[nH]1 [Compound 12a] , thanks.
[reply] > 100 µM

* * *

Recorded EC50 values for a group of molecules are listed next.
Tested on: E. histolytica HM1:IMSS
assay: ATP-bioluminescence growth/survival EC50 assay, E. histolytica
Format: cell-based, Entamoeba histolytica
measurement_context: Entamoeba histolytica, read-out: EC50 E. histolytica HM1:IMSS
A number alone suffices; assume µM.

[ask] Let me know recorded EC50 for O=C(NCc1ccc(F)cc1)c1ncc([N+](=O)[O-])[nH]1 [Compound 12a] , thanks.
[reply] 3.6

[ask] Let me know recorded EC50 for O=C(NC1CCCCC1)c1ncc([N+](=O)[O-])[nH]1 [Compound 12k] , thanks.
[reply] 2.8

[ask] Let me know recorded EC50 for CC(NC(=O)c1ncc([N+](=O)[O-])[nH]1)c1ccc(F)cc1 (centres unmarked) [Compound 12d] , thanks.
[reply] 1.7

[ask] Let me know recorded EC50 for CN(C)C(=O)c1nc([N+](=O)[O-])cn1Cc1ccc(OC(F)(F)F)cc1 [Compound 14b] , thanks.
[reply] 19

* * *

Tested on: E. histolytica HM1:IMSS
assay: ATP-bioluminescence growth/survival EC50 assay, E. histolytica
Assay type: cell-based, Entamoeba histolytica
measurement_context: Entamoeba histolytica, read-out: EC50 E. histolytica HM1:IMSS
outcome_measure: pEC50
Worth noting: pEC50 values are minus log10 of concentrations stated in mol/L.

Worked set:
molecule	pEC50
O=C(c1ncc([N+](=O)[O-])[nH]1)N1CCOCC1 [Compound 12h]	5.29
CN(C)C(=O)c1ncc([N+](=O)[O-])[nH]1 [Compound 12g]	5.57

Query molecule follows.
[ask] Let me know recorded pEC50 for Cn1c([N+](=O)[O-])cnc1C(=O)NCc1ccc(F)cc1 , thanks.
[reply] 5.01

* * *

assay: Resazurin cytotoxicity assay, HEK293
Assay type: cell-based, Human
measurement_context: human, HEK293 cells, 24 h; read-out: pCC50 ± SE HEK293 (converted)
outcome_measure: CC50 at 24 h (µM)
A number alone suffices; assume µM.

[ask] Let me know recorded CC50 at 24 h for O=C(NO)c1nc([N+](=O)[O-])cn1Cc1ccc(OC(F)(F)F)cc1 [Compound 14d] , thanks.
[reply] 36.3

* * *

Tested on: G. lamblia WB (MtzS)
assay: ATP-bioluminescence growth/survival EC50 assay, G. lamblia WB
measurement_context: read-out: EC50 G. lamblia WB; MtzS strain WB; minimum n = 3
outcome_measure: EC50 (nM)
A number alone suffices; assume nM.

Worked set:
compound	assay_system	outcome_measure	data_value
Cc1ccc(CCNC(=O)c2ncc([N+](=O)[O-])n2C)cc1 [Compound 8e]	G. lamblia WB (MtzS)	EC50	2800
Cn1c([N+](=O)[O-])cnc1C(=O)NCc1cccc(OC(F)(F)F)c1 [Compound 8c]	G. lamblia WB (MtzS)	EC50	3100

Query compound follows.
[ask] Let me know recorded EC50 for Cn1c([N+](=O)[O-])cnc1C(=O)NCc1ccc(OC(F)(F)F)cc1 [Compound 8b] , thanks.
[reply] 3000

* * *

Recorded CC50 values for a group of compounds are listed next.
System: HepG2 cells
assay: Resazurin cytotoxicity assay, HepG2
Format: cell-based, Human

compound	CC50
Cn1c([N+](=O)[O-])cnc1C(=O)NCc1cccc(OC(F)(F)F)c1	> 100 µM

Query compound follows.
[ask] Let me know recorded CC50 for Cn1c([N+](=O)[O-])cnc1C(=O)NCc1ccc(OC(F)(F)F)cc1 , thanks.
[reply] > 100 µM

* * *

assay: Resazurin cytotoxicity assay, HepG2
Assay type: cell-based, Human
measurement_context: human, HepG2 cells, 24 h, highest concentration 100 μM; n = 3; read-out: CC50 Hep G2
outcome_measure: CC50 at 24 h

molecule	outcome_measure	data_value
CNC(=O)c1ncc([N+](=O)[O-])[nH]1 [Compound 12m]	CC50 at 24 h	> 100 µM
O=C(NCc1ccccn1)c1ncc([N+](=O)[O-])[nH]1 [Compound 12f]	CC50 at 24 h	> 100 µM
O=C(c1ncc([N+](=O)[O-])[nH]1)N1CCCC1 [Compound 12i]	CC50 at 24 h	> 100 µM
O=C(NCc1ccc(OC(F)(F)F)cc1)c1ncc([N+](=O)[O-])[nH]1 [Compound 12b]	CC50 at 24 h	93 µM
Cn1c([N+](=O)[O-])cnc1C(=O)NC1CC1 [Compound 8j]	CC50 at 24 h	> 100 µM
O=C(NC1CCCCC1)c1ncc([N+](=O)[O-])[nH]1 [Compound 12k]	CC50 at 24 h	> 100 µM
O=C(NCCO)c1ncc([N+](=O)[O-])[nH]1 [Compound 12n]	CC50 at 24 h	> 100 µM
Cn1c([N+](=O)[O-])cnc1C(=O)N1CCCC1 [Compound 8i]	CC50 at 24 h	> 100 µM
CC(NC(=O)c1ncc([N+](=O)[O-])n1C)c1ccc(F)cc1 (stereo not drawn) [Compound 8d]	CC50 at 24 h	> 100 µM
CC(NC(=O)c1ncc([N+](=O)[O-])[nH]1)c1ccc(F)cc1 (stereo not drawn) [Compound 12d]	CC50 at 24 h	> 100 µM

[ask] Let me know recorded CC50 at 24 h for Cc1ncc([N+](=O)[O-])n1CCO [Compound 1, Metronidazole, reference compound] , thanks.
[reply] > 100 µM
